B1: TNXB (parent)
chain: LLQRELMVPGTRHSAVLRDLRSGT

variants of: B1; test: protein stability index of a GFP-peptide fusion (GPS, HEK-293T) (PSI 1-6); higher = more stable; settings: c terminus: a fixed tail appended;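 also: lentivirally expressed fusions sorted by FACS into six bins by GFP to DsRed ratio, PSI derived from sequencing read proportions per bin multiplied by bin number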
property name: protein stability index
Just the number.

V8T    2.36
H13G    2.31
P9I    1.58
H13A    2.53
L17G    2.84
T11V    2.24
L2I    2.79
T24I    1.72

Challenge: Quick check: protein stability index of R21E ?
Response given: 2.58

Challenge: And then S14M , what is it?
Response given: 2.23
